Entries and their melting point
Measured Attribute: melting point

In [3]: df
Out[3]:
                                   compound  observed_measurement
0  CCCc1c(OCCCCCOc2cc(OCCCC(=O)OC)ccc2CCC(=O)OC)ccc2c1OCCC2=O           58 to 59 °C
1  CC(C)(C)OC(=O)N1[C@@H](Cc2ccc(O[Si](C)(C)C(C)(C)C)c(C(C)(C)C)c2)C(=O)O[C@H](c2ccccc2)[C@@H]1c1ccccc1           75 to 83 °C
2  Nc1ccn([C@H]2C=C[C@@H](O)C2)c(=O)n1 (racemic)         241 to 242 °C
3   C=C(CCC)C(=O)c1ccc(OCCCC(=O)O)c(Cl)c1Cl           85 to 87 °C
